details: in acetone, 288.15 K
Property name: solubility (mole fraction)

>  <Test smiles>
OCc1ccc(O[C@@H]2O[C@H](CO)[C@@H](O)[C@H](O)[C@H]2O)cc1

>  <Property name>
solubility (mole fraction)

>  <Result>
0.00171

$$$$

----------
details: in acetonitrile, 303.15 K

>  <Test smiles>
OCc1ccc(O[C@@H]2O[C@H](CO)[C@@H](O)[C@H](O)[C@H]2O)cc1

>  <solubility (mole fraction)>
0.00147

$$$$

----------
details: in cyclohexane, 308.15 K

>  <Test smiles>
OCc1ccc(O[C@@H]2O[C@H](CO)[C@@H](O)[C@H](O)[C@H]2O)cc1

>  <solubility (mole fraction)>
0.00326

$$$$

----------
conditions: in ethanol, 313.15 K

>  <Test smiles>
OCc1ccc(O[C@@H]2O[C@H](CO)[C@@H](O)[C@H](O)[C@H]2O)cc1

>  <solubility (mole fraction)>
0.00337

$$$$

----------
conditions: in isopropanol, 288.15 K
Property name: solubility (mole fraction)

>  <Test smiles>
OCc1ccc(O[C@@H]2O[C@H](CO)[C@@H](O)[C@H](O)[C@H]2O)cc1

>  <Numeric readout>
0.002

$$$$

----------
conditions: in ethyl acetate, 273.15 K

>  <Test smiles>
OCc1ccc(O[C@@H]2O[C@H](CO)[C@@H](O)[C@H](O)[C@H]2O)cc1

>  <solubility (mole fraction)>
0.00174

$$$$

----------
details: in ethyl acetate, 288.15 K

>  <Test smiles>
OCc1ccc(O[C@@H]2O[C@H](CO)[C@@H](O)[C@H](O)[C@H]2O)cc1

>  <solubility (mole fraction)>
0.00274

$$$$

----------
conditions: in acetone, 303.15 K

>  <Test smiles>
OCc1ccc(O[C@@H]2O[C@H](CO)[C@@H](O)[C@H](O)[C@H]2O)cc1

>  <solubility (mole fraction)>
0.00273

$$$$

----------
conditions: in cyclohexanone, 288.15 K
Property name: solubility (mole fraction)

>  <Test smiles>
OCc1ccc(O[C@@H]2O[C@H](CO)[C@@H](O)[C@H](O)[C@H]2O)cc1

>  <Property name>
solubility (mole fraction)

>  <Result>
0.0022

$$$$

----------
settings: in n-propanol, 278.15 K
Property name: solubility (mole fraction)

>  <Test smiles>
OCc1ccc(O[C@@H]2O[C@H](CO)[C@@H](O)[C@H](O)[C@H]2O)cc1

>  <Property name>
solubility (mole fraction)

>  <Numeric readout>
0.00094

$$$$
